Assay: Qualitative solubility of sodium galactarate in water-based solutions
Settings: 20 °C, aqueous buffer, thermodynamic from solid, Solubility after 15 min., 0.5M LiCl; 0.5 g in 50 mL, 20 C, stirring
metric name: solubility at 15 min

In [3]: df
Out[3]:
                                   compound  value_observed
0  O=C([O-])[C@@H](O)[C@H](O)[C@H](O)[C@@H](O)C(=O)[O-].[Na+].[Na+] [sodium galactarate]   > 10000 µg/mL

====

Experiment: Qualitative solubility of sodium galactarate in water-based solutions
Settings: 20 °C, saline or isotonic, thermodynamic from solid, Solubility after 50 min., 0.5M NaCl; 0.5 g in 50 mL, 20 C, stirring
Method: To characterize the solubility of sodium galactarate, 0.5M solutions of alkali salts and non-alkali base were prepared in deionized water. To 50 mL of each solution 0.5 g of sodium galactarate, was added at 20° C. with stirring.
metric name: solubility at 50 min

>>> df
                                   molecule  value_observed
0  O=C([O-])[C@@H](O)[C@H](O)[C@H](O)[C@@H](O)C(=O)[O-].[Na+].[Na+] [sodium galactarate]   < 10000 µg/mL

====

Assay: Qualitative solubility of sodium galactarate in water-based solutions
Conditions: 20 °C, aqueous buffer, thermodynamic from solid, Solubility after 15 min., 0.5M NaOH; 0.5 g in 50 mL, 20 C, stirring
metric name: solubility at 15 min

In [3]: df
Out[3]:
                                   compound  value_observed
0  O=C([O-])[C@@H](O)[C@H](O)[C@H](O)[C@@H](O)C(=O)[O-].[Na+].[Na+] [sodium galactarate]   < 10000 µg/mL

====

Assay: Qualitative solubility of sodium galactarate in water-based solutions
Settings: 20 °C, saline or isotonic, thermodynamic from solid, Solubility after 15 min., 0.5M NaCl; 0.5 g in 50 mL, 20 C, stirring
metric name: solubility at 15 min

>>> df
                                   compound           metric_name  value_observed
0  O=C([O-])[C@@H](O)[C@H](O)[C@H](O)[C@@H](O)C(=O)[O-].[Na+].[Na+] [sodium galactarate]  solubility at 15 min   < 10000 µg/mL

====

Test: Qualitative solubility of sodium galactarate in water-based solutions
Conditions: 20 °C, aqueous buffer, thermodynamic from solid, Solubility after 50 min., 0.5M NaOH; 0.5 g in 50 mL, 20 C, stirring
metric name: solubility at 50 min

In [3]: df
Out[3]:
                                   compound           metric_name  value_observed
0  O=C([O-])[C@@H](O)[C@H](O)[C@H](O)[C@@H](O)C(=O)[O-].[Na+].[Na+] [sodium galactarate]  solubility at 50 min   < 10000 µg/mL
